Target: T1, human RANTES (human, UniProt P13501 24-91)
T1 construct: also called hRANTES
T1 sequence (looked up): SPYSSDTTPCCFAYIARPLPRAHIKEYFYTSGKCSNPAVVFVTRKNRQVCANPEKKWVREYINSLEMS
Assay: ELISA, coated antigen
Quantity: ELISA OD (OD450)
Unit OD450 implied. Number only.

Sample answers from the record:
Binder	Measurement unit	ELISA OD
anti-MCP-1 mAb 3.4.1 (antibody, V domains shown) VH: QVQLVQSGAEVKKPGASVKVSCKVSGYTLTELSMHWVRQAPGKGLEWMGGFDPEDGETMYAQKFQGRVTMTEDTSTDTAYMELSSLRSEDTAVYYCATDDFWSGYFDYWGQGTLVTVSS VL: DIVMTQSPDSLAVSLDERATINCKSSQSVLYSPNQKNYLVWYQQKPGQPPKLLLYWASIRESGVPDRFSGSGSGTDFTLTISSLQAEDVAVYYCQQSYFTPWTFGQGTKVEIKR	OD450	0.046
anti-MCP-1 mAb 1.4.1 (antibody, V domains shown) VH: QSGPGLVKPSQTLSLTCAISGDSVSSNSAAWNWIRQSPSRGLEWLGRTYYRSKWYSDHAVSVRSRITIYPDTSKNQFSLQLNSVTPEDTAVYYCARDRISGTYVGMDVWGQGTTVTVSS VL: DIGMTQTPLSLSVTPGQPASISCKSSQSLLYSDGKTYLYWYLQKPGQPPQHLIYEVSNRFSGVPDRFSGSGSGTDFTLKISRVEADDVGVYYCMQTIHLPLTFGGGTKVEIQR	OD450	0.046

Sure, the documented ELISA OD for anti-MCP-1 mAb 1.1.1 (antibody, human IgG2, kappa, V domains shown) VH: QVQLVQSGAEVKKPGASVKVSCKVSGYTLTELSMHWVRQAPGNGLEWMGGFDPEDGETIYAQRFQGRVVMTEDPSTDTAYMELSSLRSEDTAVYYCATNEFWSGYFDYWGQGTLVTVSS VL: DIVMTQSPDSLAMSLGERATINCKSSQSVLYSSNNKNYLVWYQQKPGQPPKLLIYWASIRESGVPDRFSSSGSETDFTLTISSLQAEDVAVYYCQQYFSSPWTFGQGTKVEIKR is 0.044
